Parameter: IC50. Scope: all listed entries.
Target: Fatty-acid amide hydrolase 1 [30-579] (Rattus norvegicus)
Sequence (P97612 whole entry): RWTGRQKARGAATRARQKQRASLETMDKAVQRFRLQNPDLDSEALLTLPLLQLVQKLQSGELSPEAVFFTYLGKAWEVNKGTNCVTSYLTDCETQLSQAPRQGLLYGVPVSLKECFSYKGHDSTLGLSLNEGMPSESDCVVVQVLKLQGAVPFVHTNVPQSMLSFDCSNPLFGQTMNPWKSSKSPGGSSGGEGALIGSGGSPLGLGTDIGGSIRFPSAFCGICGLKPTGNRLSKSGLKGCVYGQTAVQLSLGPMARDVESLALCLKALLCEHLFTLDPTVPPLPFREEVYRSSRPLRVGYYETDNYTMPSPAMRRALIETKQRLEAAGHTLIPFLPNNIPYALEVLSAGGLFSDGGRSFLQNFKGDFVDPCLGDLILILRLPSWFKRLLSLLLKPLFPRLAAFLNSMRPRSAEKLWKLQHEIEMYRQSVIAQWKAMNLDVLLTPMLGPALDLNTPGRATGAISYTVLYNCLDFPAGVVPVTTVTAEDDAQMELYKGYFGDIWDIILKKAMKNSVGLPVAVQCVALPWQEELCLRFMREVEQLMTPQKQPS
Please respond with the number in µM and leave the unit unwritten.

compound | IC50, µM
Cc1cccnc1NC(=O)C(C)c1ccc(CC(C)C)cc1 (stereo not drawn) | 0.65
Cc1cccc(NC(=O)CNC(=O)C(C)c2ccc(CC(C)C)cc2)n1 (stereo not drawn) | 150

From here, focus on the item given below.
QUERY: Give recorded IC50 with Fatty-acid amide hydrolase 1 [30-579] (Rattus norvegicus) for the following compound: CC(C)Cc1ccc(C(C)C(=O)NCC(=O)NCc2cccnc2)cc1 (stereo not drawn)
RESULT: 37
